experiment: small-molecule microarray binders of probe aDKK1, primary screen, biochemical, biotinylated probe, 635/667 nm fluorescence (AID 1099); conditions: higher = more signal;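 also: score merges 667nm spot fluorescence with signal to noise across triplicate slides; reference of the scale not given here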
Please respond with reported composite z-score for every item in the list.
Numbers only.

- COc1ccc(C(=O)Nc2cccc(CN3C(=O)[C@]4(O[C@H](CCO)[C@@H]([Si](C)(C)c5ccc(OC)cc5)[C@@H]4C)c4ccccc43)c2)cc1: 0.541

Items follow; give composite z-score for each.
1. C=C(CCCC)C(=O)CC[C@H](OC(=O)c1cccnc1)c1ccccc1OCCO
2. NC(=O)[C@@H]1[C@H]2C(=O)O[C@H](c3ccccc3)[C@H](c3ccccc3)N2[C@H](c2ccc(O)cc2)[C@@]12C(=O)Nc1ccc(C#CC3(O)CCCCCC3)cc12
3. CN1C(=O)C2C=CC(C(O)c3ccc(-c4ccccc4)s3)N(N(c3ccccc3)c3ccccc3)C2C1=O (centres undefined)

1: -0.322; 2: -0.127; 3: 0.818

----------
test system: glycogen synthase kinase-3 (GSK3A per assay name; protocol says GSK3B); test: GSK3 binders on small-molecule microarrays, primary screen, biochemical, small-molecule microarray, 635 nm fluorescence, GSK3A (AID 1103); details: small-molecule microarray binding, fluorescence 635 nm; higher = more signal; also: the record names both GSK3A and GSK3B
measurementLabel: composite z-score
One number for each entry.

* CCN(CC)c1ccc(N2CC=CC34O[C@@H]5/C=C\CCCOC(=O)C5[C@H]3C(=O)N(CCO)[C@@H]4C2=O)cc1 (stereo partly specified) | -0.404
* CC(CO)N1C(=O)[C@@H]2C3C(=O)OCCC/C=C\[C@H]3OC23C=CCN(c2ccc4ccccc4c2)C(=O)[C@@H]13 (stereo partly specified) | -0.974
* CN1C(=O)C2C=CC(C(O)C3=C[C@H]4C[C@@H](C3)C4(C)C)N(Nc3ccccc3)C2C1=O (stereo partly specified) | 0.776

Batch of 3 molecules: report composite z-score for each.
1. COc1ccc([Si](C)(C)[C@H]2[C@H](CC(=O)N3Cc4ccccc4C[C@H]3CO)O[C@@]3(C(=O)N(Cc4ccc(N5CCC5=O)cc4)c4ccccc43)[C@@H]2C)cc1
2. O=C1O[C@H](c2ccccc2)[C@H](c2ccccc2)N2[C@H]1[C@@H](C(=O)Nc1nc3ccccc3s1)[C@]1(C(=O)Nc3ccc(C#CCCO)cc31)[C@H]2c1ccc(OCCO)cc1
3. COC(=O)C(CC#Cc1ccc2c(c1)[C@]1(C(=O)N2)[C@H](C(=O)O)[C@H]2C(=O)O[C@H](c3ccccc3)[C@H](c3ccccc3)N2[C@@H]1c1ccc(O)cc1)C(=O)OC

1. 0.972
2. 1.31
3. -0.266

----------
Please go through the items and note down their composite z-score.
test system: Lefty1; assay: Lefty1 binders on small-molecule microarrays, primary screen, biochemical, small-molecule microarray, 635/667 nm fluorescence (AID 1139); details: small-molecule microarray binding, fluorescence 635/667; higher = more signal
Give bare numbers.

Can you give me composite z-score for all of these, one by one?
1. C=C(/C(=C/C[C@@H](OC(C)=O)c1ccc(OCCO)cc1)c1cnc2ccccc2c1)C(C)C
2. COc1ccc(CCNC(=O)[C@@]2(Sc3ccc(C)cc3)CC(=O)N(C3CCCCC3)[C@@H]2c2ccc(CO)cc2I)cc1
3. COc1ccc(C(O)C2C=CC3C(=O)NC(=O)C3N2Nc2ccccn2)c2ccccc12 (stereo not drawn)
4. CN1C(=O)C2C=CC(C(O)C3CC=CCC3)N(NC(=O)OC(C)(C)C)C2C1=O (stereo not drawn)
5. O=C1c2ccccc2[C@@]2(Cc3ccccc3N(CCN3CCOCC3)C2=O)[C@H](c2ccc(CO)cc2)N1Cc1ccccc1
6. O=C1OCCC/C=C\[C@H]2OC34C=CCN(c5ccc6ccccc6c5)C(=O)[C@H]3N(CCCCCCO)C(=O)[C@@H]4C12 (stereo partly drawn)

0.806
0.569
-0.0665
0.717
-0.0729
-0.159

I'm hoping you can list composite z-score for every molecule here, please.
1. CCOC(=O)[C@H]1C/C=C/C[C@H](C(=O)OCC)C(=O)O[C@H]2[C@@H](OC)O[C@H](CO)[C@@H](OC(=O)Nc3ccc(C#N)cc3)[C@@H]2OC1=O
2. CCCCN1CC=CC23O[C@@H]4C=CCOC(=O)[C@@H]4[C@H]2C(=O)N(CCCCCO)[C@@H]3C1=O (stereo partly drawn)
3. O=C1O[C@H](c2ccccc2)[C@H](c2ccccc2)N2[C@H]1[C@@H](C(=O)O)[C@]1(C(=O)Nc3ccc(C#CC4=CCCCC4)cc31)[C@H]2c1ccccc1OCCO
4. C=CCOC(=O)[C@@H]1[C@H]2C(=O)O[C@H](c3ccccc3)[C@H](c3ccccc3)N2[C@H](c2ccc(OCCOC(=O)[C@@H]3C[C@@H]4C(=O)N[C@@H](CCCC[N+](C)(C)C)C(=O)N4[C@@H]3c3cccc(OCCO)c3)cc2)[C@@]12C(=O)Nc1ccc(I)cc12
5. COc1ccc([Si](C)(C)[C@H]2[C@H](CCn3cc([C@H](O)c4ccccc4)nn3)O[C@@]3(C(=O)N(Cc4cccc(N5CCOC5=O)c4)c4ccccc43)[C@@H]2C)cc1

0.519
-0.393
1.63
1.64
0.892

Give me composite z-score for each of these molecules, listed below.
1. OC([C@@H]1CC(c2ccccc2)=NO1)[C@H]1CC(c2ccccc2)=NO1 (stereo partly drawn)
2. COc1ccc(CCN2C(=O)[C@@]3(c4ccc([N+](=O)[O-])cc4)CC(=O)N(C4CCCCC4)[C@@H]3c3ccc(CO)cc32)cc1
3. CS(=O)(=O)CCOC(=O)C1=CC(CCCO)=CC(c2ccc(CN3CCCC3)cc2)N(Cc2cc3c(cc2Br)OCO3)C=C1C(=O)OCCS(C)(=O)=O (stereo not drawn)
4. C=CCN1C(=O)[C@@]2(O[C@@H](CCO)[C@H]([Si](C)(C)c3ccc(OC)cc3)[C@H]2C)c2cc(NC(=O)c3ccc(OC)cc3)ccc21

1: 0.484; 2: 0.563; 3: 0.666; 4: 0.763

Look up composite z-score for the entries below, preserving their order.
1. CN1C(=O)C2C=CC(C(O)C3=C[C@H]4C[C@@H](C3)C4(C)C)N(Nc3ccccc3)C2C1=O (stereo partly drawn)
2. O=C1O[C@@H](c2ccccc2)[C@@H](c2ccccc2)N2[C@@H](c3ccc(OCCO)cc3)[C@]3(C(=O)Nc4ccccc43)[C@@H](C(=O)NC[C@H](O)c3ccccc3)[C@H]12
3. CCOC(=O)C1=CCC(c2ccc(C)cc2)N(S(=O)(=O)c2ccc(C)cc2)C1 (stereo not drawn)
4. C=CCC(OC(C)=O)[C@@H]1[C@@H](N(Cc2cccc3ccccc23)C(=O)c2ccc(-c3ccccc3)cc2)c2cc(OCCCO)ccc2N1C(=O)Cc1ccc(OC)cc1 (stereo partly drawn)
5. COc1cc(OC)c(C(O)C2C=CC3C(=O)NC(=O)C3N2Nc2ccc(Cl)cc2Cl)cc1Br (stereo not drawn)

0.446
0.0849
0.288
0.246
0.0498

Batch of 3 molecules: report composite z-score for each.
1. CCCCC(O)C1C=CC2C(=O)N(c3ccccc3)C(=O)C2N1Nc1ccccc1F (stereo not drawn)
2. COc1cc(CO)cc(I)c1O[C@H]1C=C(C(=O)NCCO)C[C@@H](N(CCN2CCOCC2)C(=O)C2CCOC2)[C@@H]1O (stereo partly drawn)
3. CCOC(=O)C[C@H]1[C@H](OC(=O)c2cc3ccccc3oc2=O)[C@@H](NC(=O)C2CCCCC2)c2cc(OCCCO)ccc2N1C(=O)c1ccccc1

1. -0.0785
2. 0.792
3. 0.558

List composite z-score for every entry below, keeping the order given.
1. COc1ccc([Si](C)(C)[C@H]2[C@H](CCO)O[C@@]3(C(=O)N(C)c4c(Br)cc(C)cc43)[C@@H]2C)cc1
2. COc1ccc(C(=O)Nc2ccc(CN3C(=O)[C@@]4(O[C@@H](CC(=O)N5CCC[C@H]5CO)[C@H]([Si](C)(C)c5ccc(OC)cc5)[C@H]4C)c4ccccc43)cc2)cc1
3. C=C(COC)/C(=C/C[C@@H](OC(C)=O)c1ccc(OCCO)cc1)c1cc(C(=O)OC)ccc1OC

0.486
1.21
1.19

# map each molecule to its composite z-score
1. C=C(COC)/C(=C/C[C@@H](OC(C)=O)c1ccc(CO)o1)c1cnc2ccccc2c1
2. CCN(CC)c1ccc(N2CC=CC34O[C@@H]5/C=C\CCC(C)OC(=O)C5[C@H]3C(=O)N(C(CO)C(C)C)[C@@H]4C2=O)cc1 (stereo partly drawn)

1.46
-0.674
